Documented melting point across a set of compounds

Examples with answers:
compound: O=Cc1cccc(/C=C/c2nc(C3CCC3)cs2)c1
melting point: 78 to 80 °C
--
compound: CSC(=NC#N)N1CCc2nc(NC(=N)N)sc2C1
melting point: 224 to 227 °C
--
compound: COC(=O)c1c(Cl)cc(Cl)cc1NC(=O)CSc1ccc(NC(=S)Nc2cccc(Cl)c2)cc1
melting point: 148 to 150 °C
--
compound: N#Cc1cccc(-c2cnc3[nH]c(=O)n(CC4CCCCC4)c3n2)c1
melting point: 228 to 230 °C

Query string: Supply measured melting point of "CCOC(=O)c1ncc(Cl)cc1N" in your reply.
Result string: 140 to 142 °C

Query string: Consider the compound "COc1cc(C(F)(F)F)cc(Cl)c1Oc1ccc2ccc(O)cc2c1" and give its recorded melting point.
Result string: 130 °C

Query string: Determine its reported melting point: "O=C1C(Cl)=C(C2CCCCC2)C(=O)c2ccccc21"
Result string: 150 to 151 °C

Query string: # return recorded melting point for entry "Cn1ccnc1Sc1ccc(Nc2c(C#N)cnc3cc(-c4csc(CN5CCOCC5)c4)ccc23)cc1Cl"
Result string: 110 to 113 °C

Query string: Read off the recorded melting point for COCCOc1ccc(C(=O)C2=C(O)C(=O)N(c3ccc(C)nn3)C2c2ccc(OC(F)(F)F)cc2)cc1 (configuration not stated)
Result string: 216 to 219 °C

Query string: Give reported melting point value for "CC(=O)OCCN(CCOC(C)=O)c1ccc(C=CC=Cc2ccc([N+](=O)[O-])cc2)cc1"
Result string: 195 to 198 °C

Query string: Answer with the recorded melting point for the compound listed here: "CNC(=S)NCCCCc1c[nH]c(NC(=N)N)n1"
Result string: 179 to 184 °C

Query string: Tell us which melting point value is on record for "CCCCCCCCCCCCC#CCC(COC(C)=O)(COC(C)=O)NC(C)=O"
Result string: 95.5 to 96.5 °C

Query string: Give the measured melting point for "NC(N)=NC(=O)Cn1cccc1"
Result string: 214 °C

Query string: Answer with the recorded melting point of "Cc1c(C(=O)Nc2ccc(N3CCN(CCO)CC3)c(C#N)c2)cnn1-c1ccc(Cl)c(Cl)c1" only.
Result string: 195 to 197 °C

Query string: Identify measured melting point associated with "CC(C)(COC(c1ccccc1)(c1ccccc1)c1ccccc1)C(=O)O"
Result string: 153 to 158 °C

Query string: Return reported melting point. Input compound: NC(=O)NCCS(=O)Cc1ccccc1 (configuration not stated)
Result string: 110 °C

Query string: Please list melting point recorded for the compound "O=C(O)c1cccc(-c2nn(Cc3ccccc3)c3ccccc23)c1"
Result string: 190 to 192 °C

Query string: Give melting point for the following compound: "Cc1cccc(-c2[nH]c(CC(C)C)nc2-c2cccc(-c3ccc(C(=O)NC4CCOCC4)cc3)c2)n1"
Result string: 126 to 129 °C

Query string: Output melting point of "COc1cc2c(cc1OC)CCCC(C(=O)N1CCN(C(=O)c3cc(OC)c(OC)c(OC)c3)CC1)=C2"
Result string: 164 to 165 °C

Query string: Could you please provide reported melting point for "COc1ccc(-c2oncc2CO)cc1" ? Thanks!
Result string: 57 to 58 °C

Query string: Item "Cc1cccc(C)c1CNc1cc(C2=NCCN2C)cc2c1nc(C)n2C" : provide melting point
Result string: 118 to 119 °C

Query string: In one line, give reported melting point of the entry "NS(=O)(=O)c1ccc(-c2cc(F)c(F)cc2-c2ccc(F)cc2)cc1" .
Result string: 190 to 192 °C

Query string: Item "COc1cc(OC)c(C2=CCCCC2)c(OC)c1" : provide melting point
Result string: 127 °C

Query string: Note melting point for the compound shown: "CN(C)C(=O)c1nc(-c2cccnc2)nc2c1[nH]c(=O)n2-c1ccccc1"
Result string: 250 to 252 °C

Query string: Assign melting point to the following record: "CNC(=O)C(=O)c1ccccc1COc1ccc(-c2ccccc2)cc1"
Result string: 144 to 145 °C

Query string: Provide one value: measured melting point of "Nc1cccc(-n2c(=O)c3c(CCc4ccncc4)n[nH]c3c3cccnc32)c1"
Result string: 261 to 263 °C

Query string: Identify measured melting point associated with "C[C@H](O)C(=O)N[C@@H]1C(=O)Nc2c(F)cccc2O[C@@H]1C"
Result string: 221 to 225 °C

Query string: Answer with reported melting point of "COc1cc2c(cc1OC)C(=O)NN(CCCO)C2"
Result string: 178 °C

Query string: For "CC(=Cc1ccc2ccccc2c1)c1ccc(C)cc1" , write its melting point.
Result string: 109 °C
